test.name: Activity of human recombinant N-terminal His-tagged DCK Pro122Ser mutant expressed in Escherichia coli BL21(DE3) cells assessed as cytosine-beta-D-arabinofuranoside-5'-MP formation incubated for 3 mins by liquid chromatography-tandem mass spectrometry
Format: ADME
condition.set: 0.05 h
measured.parameter: Km (µM)
Write it as a number; the unit µM goes unstated.

Which Km value is on record for `Nc1ccn([C@@H]2O[C@H](CO)[C@@H](O)[C@@H]2O)c(=O)n1` ?
1.56

---

test.name: Activity of human recombinant N-terminal His-tagged DCK Ile24Val mutant expressed in Escherichia coli BL21(DE3) cells assessed as cytosine-beta-D-arabinofuranoside-5'-MP formation incubated for 3 mins by liquid chromatography-tandem mass spectrometry
Assay type: ADME
condition.set: 0.05 h
measured.parameter: Km (µM)
Write it as a number; the unit µM goes unstated.

Could you tell me which Km is on file for `Nc1ccn([C@@H]2O[C@H](CO)[C@@H](O)[C@@H]2O)c(=O)n1` ?
2.45
